Test system: L1210 Murine leukemia cells
procedure details: In vitro growth inhibition of L1210 murine leukemia cells (Coulter Counter)
Type: cell-based
condition set: Mus musculus, 72 hours of continuous exposure
Counter-ions that a name gives are not always drawn.
attribute measured: IC50 (µg/mL)
Answers are plain numbers, in µg/mL.

- compound: "O=C1c2ccncc2C(=O)c2c(NCCNCCO)ccc(NCCNCCO)c21 [Compound 10l.maleate]"
  test system: "L1210 Murine leukemia cells"
  IC50 [µg/mL]: 0.06

Give IC50 for all compounds that follow.
1. CN(C)CCNc1ccc(NCCN(C)C)c2c1C(=O)c1cccnc1C2=O [Compound 5a, reference compound]
2. O=C1c2ccncc2C(=O)c2c(NCCN3CC3)ccc(NCCN3CC3)c21 [Compound 10f]
3. NCCNc1ccc(NCCN)c2c1C(=O)c1ccncc1C2=O [Compound 10i.HCl]

Reply:
1. 0.155
2. 0.002
3. 0.05

Task item: Complete the entry with IC50 for CN(C)CCNc1ccc(NCCN(C)C)c2c1C(=O)c1ccncc1C2=O [Compound 10a]
Reply: 0.006

====

System: Lovo/DX
procedure details: MTT cytotoxicity assay on doxorubicin-resistant subline Lovo/DX
Assay type: cell-based, human
condition set: R.I. = (IC50 LoVo/Dx)/(IC50 LoVo)
attribute measured: R.I.
Numbers only.

- molecule: "NCCCNc1ccc(NCCCN)c2c1C(=O)c1ccncc1C2=O [Compound 12a]"
  attribute measured: "R.I."
  measured: 12.7
- molecule: "CN(C)CCNc1ccc(NCCN(C)C)c2c1C(=O)c1ccncc1C2=O [Compound 10a]"
  attribute measured: "R.I."
  measured: 1.9
- molecule: "O=C1c2ccccc2C(=O)c2c(NCCNCCO)ccc(NCCNCCO)c21 [Ametantrone, reference compound]"
  attribute measured: "R.I."
  measured: 101.2

Below: the item to evaluate.
Task item: Complete the entry with R.I. for CCN(CC)CCNc1ccc(NCCN(CC)CC)c2c1C(=O)c1ccncc1C2=O [Compound 10b]
Reply: 2.4

====

Tested on: Lovo/DX
procedure details: MTT cytotoxicity assay on doxorubicin-resistant subline Lovo/DX
Type: cell-based, human
condition set: R.I. = (IC50 LoVo/Dx)/(IC50 LoVo)
Exercise: for every item that follows, state its recorded R.I..
One number for each entry.

Consider the reported R.I. for these compounds:
- compound: "CN(C)CCCNc1ccc(NCCCN(C)C)c2c1C(=O)c1ccncc1C2=O [Compound 12c]"
  test system: "Lovo/DX"
  R.I.: 2.4
- compound: "COc1cccc2c1C(=O)c1c(O)c3c(c(O)c1C2=O)C[C@@](O)(C(=O)CO)C[C@@H]3O[C@H]1C[C@H](N)[C@H](O)[C@H](C)O1 [Doxorubicin, reference compound]"
  test system: "Lovo/DX"
  R.I.: 142.7
- compound: "O=C1c2ccncc2C(=O)c2c(NCCN3CCOCC3)ccc(NCCN3CCOCC3)c21 [Compound 10e]"
  test system: "Lovo/DX"
  R.I.: 0.4
- compound: "O=C1c2c(O)ccc(O)c2C(=O)c2c(NCCNCCO)ccc(NCCNCCO)c21 [Mitoxantrone, reference compound]"
  test system: "Lovo/DX"
  R.I.: 29.0
- compound: "O=C1c2ccncc2C(=O)c2c(NCCN3CCCC3)ccc(NCCN3CCCC3)c21 [Compound 10d]"
  test system: "Lovo/DX"
  R.I.: 2.6

Below: the item to evaluate.
Task item: Complete the entry with R.I. for NCCNc1ccc(NCCN)c2c1C(=O)c1ccncc1C2=O.O=C(O)/C=C\C(=O)O.O=C(O)/C=C\C(=O)O [Compound 10i.maleate]
Reply: 31.8
